System: OVCAR-8 ovarian
Test: NCI-60 one-dose screen, 48 h (100 = growth as untreated, 0 = no growth, -100 = all killed)
Details: 10 µM unless noted
Compounds without any hit were thinned out: in the full panel of roughly 83,000, 20% have a hit.
reportedMetric: growth (%)

In [3]: df
Out[3]:
                                   compound  reportedmetric  u  testvalue
0                        CCOC(=O)c1ccc[nH]1          growth  %       95.9
1  Cc1nc2sc(C(=O)Nc3ccccn3)c(N)c2cc1C(C)O (stereo not given)          growth  %       92.5
2  CN1c2ccccc2S(=O)(=O)n2c(SCC(=O)Nc3nc4ccc(F)cc4s3)nnc21          growth  %       97.4
3  COC(=O)c1c2c(c(C)[n+]([O-])c1C)C(=O)C(NCc1ccccc1)=CC2=O          growth  %       5.27
4  CN(C)c1ccc(/C=C2\C=C(c3nc4ccccc4s3)OC2=O)cc1          growth  %        100
5  CC[C@H](Nc1nc(N)nc(C)c1C#N)c1nc2cccc(CN(C)c3ncc(C(=O)NO)cn3)c2c(=O)n1-c1ccccc1          growth  %       4.22
6   Nc1[nH]nc2nc(-c3ccccc3)n3c4ccccc4nc3c12          growth  %       98.8
7  CCOc1ccc(/C=C/C(=O)c2cccc(OCCCOc3cccc(C(=O)/C=C/c4ccc(OCC)cc4)c3)c2)cc1          growth  %       85.9
8  O=c1cc(CP(=O)(O)O)c2cc(O)c(-c3ccccc3)cc2o1          growth  %        101
9  O=C(Nc1cc(Cl)cc(Cl)c1)Oc1c(Cl)c(Cl)c(Cl)c(Cl)c1Cl          growth  %       78.1

----------
Tested on: UACC-257 melanoma
Experiment: NCI-60 one-dose screen, 48 h (100 = growth as untreated, 0 = no growth, -100 = all killed)
Settings: 10 µM unless noted
Protocol: Cells are grown in 96 well plates and exposed to the test compound for 48 hours. Compounds are tested at a single concentration, which is 10^-5 M for most compounds. The reported endpoint is percent growth (GI% or GIPRCNT), where numbers from 0 - 100% represent growth inhibition, and numbers from -100% - 0 represent cell death. For example, a value of 40 represents 60% growth inhibition. A value of 0 means no net growth occurred over the course of the experiment. […]
Compounds without any hit were thinned out: in the full panel of roughly 83,000, 20% have a hit.
growth values for the compounds below.
reportedMetric: growth (%)

In [3]: df
Out[3]:
                                   compound  testvalue
0  Cc1ccc(S(=O)(=O)OCC#CCOS(=O)(=O)c2ccc(C)cc2)cc1       66.8
1  COC(=O)[C@@]1(C)CC[C@]2(C)CC[C@]3(C)C4=CC=C5C(=CC(=O)C(O)=C5C)[C@]4(C)[C@@H](O)C[C@@]3(C)[C@@H]2C1         32
2  CCOC(=O)CNC1=C(Cl)C(=O)N(Cc2ccc(Cl)cc2)C1=O        106
3  C=C(C)[C@@H]1CC[C@]2(CO)CC[C@]3(C)[C@H](CC[C@@H]4[C@@](C)(CCCN)[C@H](C(=C)C)CC[C@]43C)[C@@H]12      -78.9
4  CCOC(=O)C1=C(CC(O)c2ccc(OC)cc2OC)NC(=O)NC1c1ccccc1 (stereo not drawn)        102
5  COC(=O)[C@]1(C)CCC[C@]2(C)[C@H]3C[C@@H]4[C@H]5[C@@H]6CC/C(=N\OCC/C(N)=N/O)[C@H]5[C@@]3(CC[C@H]21)CC4(C(C)C)O6       80.4
6  COc1ccc(C2[C@@H](Cl)C(=O)N2c2cc(OC)c(OC)c(OC)c2)cc1Cl (stereo partly drawn)       31.5
7  Cc1ccc(C)c2c1sc1nc(N3CCOCC3)c(C#N)c(=O)n12        112
